Target: T1, human c-Met (Sino Biological) (human, UniProt P08581 25-932, limits assumed)
T1 construct: Analyte in the Biacore assay; also called antigen (c-Met); printed as "human c-Met antibody (Sino Biological, Beijing, China)"
T1 sequence (P08581 25-932 limits assumed): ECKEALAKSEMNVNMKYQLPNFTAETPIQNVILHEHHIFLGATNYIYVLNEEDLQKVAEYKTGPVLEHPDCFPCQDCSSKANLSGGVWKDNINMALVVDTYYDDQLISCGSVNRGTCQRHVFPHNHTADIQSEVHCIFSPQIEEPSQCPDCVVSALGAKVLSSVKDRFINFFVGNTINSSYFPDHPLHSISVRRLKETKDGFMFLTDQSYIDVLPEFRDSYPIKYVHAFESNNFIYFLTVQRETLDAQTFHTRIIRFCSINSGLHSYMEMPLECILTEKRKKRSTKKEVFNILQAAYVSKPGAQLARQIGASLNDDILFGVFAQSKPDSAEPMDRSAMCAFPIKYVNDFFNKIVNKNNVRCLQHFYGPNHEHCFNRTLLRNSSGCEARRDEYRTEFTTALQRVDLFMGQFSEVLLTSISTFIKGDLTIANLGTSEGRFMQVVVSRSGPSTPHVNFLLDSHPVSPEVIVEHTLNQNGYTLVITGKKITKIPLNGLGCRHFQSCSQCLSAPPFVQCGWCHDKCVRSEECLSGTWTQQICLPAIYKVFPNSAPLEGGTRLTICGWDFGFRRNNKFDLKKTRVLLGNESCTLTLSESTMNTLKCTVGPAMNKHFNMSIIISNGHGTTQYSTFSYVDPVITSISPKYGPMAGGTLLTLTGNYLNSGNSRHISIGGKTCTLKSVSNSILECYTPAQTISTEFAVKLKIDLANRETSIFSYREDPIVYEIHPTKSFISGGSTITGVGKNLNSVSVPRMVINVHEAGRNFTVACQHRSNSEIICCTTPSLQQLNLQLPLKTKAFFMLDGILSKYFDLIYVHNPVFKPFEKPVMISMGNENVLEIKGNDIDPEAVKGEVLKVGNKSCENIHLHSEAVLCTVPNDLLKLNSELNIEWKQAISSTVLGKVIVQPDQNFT
Assay: derived from the Biacore KD, normalised to VH0/Vk0
quantity: Index 2 (binding affinity, inverse KD relative to VH0/Vk0)
# answer = number (no unit)

VH4/Vk2 (antibody, IgG1, V domains shown, Full IgG1/kappa expressed in HEK 293 EBNA cells) VH: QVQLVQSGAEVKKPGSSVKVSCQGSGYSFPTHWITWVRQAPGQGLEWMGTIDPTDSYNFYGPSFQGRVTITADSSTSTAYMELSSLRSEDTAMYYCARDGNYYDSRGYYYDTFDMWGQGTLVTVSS VL: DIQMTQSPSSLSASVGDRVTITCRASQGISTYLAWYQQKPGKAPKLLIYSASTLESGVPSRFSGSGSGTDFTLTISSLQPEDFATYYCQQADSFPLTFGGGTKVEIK | 1.23

The reported value for VH4/Vk0 (antibody, IgG1, V domains shown, Full IgG1/kappa expressed in HEK 293 EBNA cells) VH: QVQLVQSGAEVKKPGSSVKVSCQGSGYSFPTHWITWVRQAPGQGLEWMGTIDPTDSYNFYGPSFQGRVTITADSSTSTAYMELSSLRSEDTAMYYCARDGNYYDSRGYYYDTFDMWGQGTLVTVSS VL: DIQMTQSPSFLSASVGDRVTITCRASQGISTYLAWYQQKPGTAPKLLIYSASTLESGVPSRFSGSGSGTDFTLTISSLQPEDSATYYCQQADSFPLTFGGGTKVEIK in terms of Index 2 (binding affinity, inverse KD relative to VH0/Vk0) is 1.32

The recorded Index 2 (binding affinity, inverse KD relative to VH0/Vk0) for entry VH0/Vk2 (antibody, IgG1, V domains shown, Full IgG1/kappa expressed in HEK 293 EBNA cells) VH: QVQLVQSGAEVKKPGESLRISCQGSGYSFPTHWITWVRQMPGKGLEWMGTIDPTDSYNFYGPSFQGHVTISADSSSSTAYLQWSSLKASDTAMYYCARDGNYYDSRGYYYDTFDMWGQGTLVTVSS VL: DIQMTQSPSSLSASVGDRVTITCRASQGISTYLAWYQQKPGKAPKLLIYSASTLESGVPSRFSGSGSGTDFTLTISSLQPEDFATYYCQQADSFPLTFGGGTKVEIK equals 1.02

Where do the numbers come from? From patent US20210403576A1.
